Procedure Text: acute toxicity, peroral administration
Test Conditions: in vivo, po; peroral, aqueous solution, female JCL-ICR mouse 5 to 6 weeks

Compound: O=C(O)[C@H]1CC[C@H](CN=Cc2cccc(O)c2O)CC1 [II]
LD50: > 3000 mg/kg
//
Compound: COc1ccc2c(c1)c(CC(=O)O)c(C)n2C(=O)c1ccc(Cl)cc1 [V]
LD50: 30 mg/kg
//
Compound: O=C(O)[C@H]1CC[C@H](CN=Cc2ccccc2O)CC1 [I]
LD50: ~2000 mg/kg
//
Compound: COc1ccccc1C=NC[C@H]1CC[C@H](C(=O)O)CC1 [IV]
LD50: > 3000 mg/kg
//
Compound: CN1CCCN(C(c2ccccc2)c2ccc(Cl)cc2)CC1 (stereo not drawn) [VI]
LD50: 350 mg/kg
//
Compound: O=C(O)[C@H]1CC[C@H](CN=Cc2ccc(O)cc2O)CC1 [III]
LD50: > 3000 mg/kg
